Recorded measurements of growth, one per entry
System: MOLT-4 leukemia
Assay: NCI-60 one-dose screen, 48 h (100 = growth as untreated, 0 = no growth, -100 = all killed)
Conditions: 10 µM unless noted
Compounds without any hit were thinned out: in the full panel of roughly 83,000, 20% have a hit. The source made the active and inactive calls. How the source made its calls: active means growth percent below 10; inactive means the rest.
Measure Name: growth

Compound	Measure Name	Value Observed
COc1ccc(CCO)cc1	growth	60.7% (inactive)
Nc1ccc(Cl)c(S(=O)(=O)O)c1	growth	109% (inactive)
CC(=O)C[n+]1ccccc1Sc1ccc(Cl)cc1	growth	18.9% (inactive)
OCc1cccc(F)c1	growth	83.5% (inactive)
CC(NC(=O)CCl)c1ccccc1 (stereo not given)	growth	101% (inactive)
O=C(O)Cc1cc(=O)[nH]n(-c2ccccc2)c1=O	growth	88.3% (inactive)
CCn1c2ccc(N(C)C)cc2c2cc(N(C)C)ccc21	growth	96.9% (inactive)
COc1ccc2oc3c(ccc[n+]3C)c(=O)c2c1	growth	103% (inactive)
Cc1cccc(Cl)c1N	growth	100% (inactive)
CCOCCC(=O)O	growth	116% (inactive)
N=c1sc2ccccc2n1CC(=O)O	growth	117% (inactive)
CCC(C)NC(=O)c1ccccc1C (stereo not given)	growth	114% (inactive)
CC(C)=NOC(C)C(=O)O (stereo not given)	growth	105% (inactive)
C/C=C/C(=O)OCCCCCCCCCCCC	growth	83.1% (inactive)
CC1NC(C)c2ccc3ccccc3c2O1 (stereo not given)	growth	105% (inactive)

---

System: HCC-2998 colon
Test: NCI-60 one-dose screen, 48 h (100 = growth as untreated, 0 = no growth, -100 = all killed)
Conditions: 10 µM unless noted
The panel holds about 83,000 compounds, 20% with a hit somewhere; the sample as a whole holds those more often. Activity calls are given as the source filed them. How the source made its calls: active means growth percent below 10; inactive means the rest.

Molecule	growth
C=CCN1C(=O)c2ccccc2C1=O	104% (inactive)
COc1ccc(/C=N/NC(N)=S)cc1	90.7% (inactive)
CCOC(=O)c1ccc(C(=N)N)cc1	103% (inactive)
CCOC(=N)c1ccc(C(=N)OCC)cc1	109% (inactive)
N#Cc1c(N)nc2c(c(-c3ccc(Cl)cc3)nn2-c2ccccc2)c1C#N	111% [100 µM] (inactive)
CCCCCCCCCCCCCCCCC(=O)O	96.8% (inactive)
CC(C)(C(=O)c1cccnc1)c1cccnc1	102% (inactive)
COc1ccc(CCO)cc1	107% (inactive)
CCC/C(=N/NC(N)=O)c1ccco1	104% (inactive)
Nc1ccccc1SC1CC(=O)N(c2ccc(I)cc2)C1=O (centres undefined)	103% (inactive)
CCCCCc1cc[n+](CC(=O)c2ccccc2)cc1	105% (inactive)
CC1NC(C)c2ccc3ccccc3c2O1 (centres undefined)	110% (inactive)
Cn1c(-c2ccccc2)cc(=O)cc1-c1ccccc1	127% (inactive)
Cc1ccc([N+](=O)[O-])cc1Br	117% (inactive)

---

Test system: COLO 205 colon
Assay: NCI-60 one-dose screen, 48 h (100 = growth as untreated, 0 = no growth, -100 = all killed)
Details: 10 µM unless noted
Compounds without any hit were thinned out: in the full panel of roughly 83,000, 20% have a hit. Active and inactive are the calls of the source. Rule for the calls: active = growth percent below 10; inactive = the rest.
Measure Name: growth

Compound	Value Observed
CC(C)=NOC(C)C(=O)O (centres undefined)	111% (inactive)
CC(=O)Nc1cscc1NC(C)=O	100% (inactive)
NNc1ncnc2cccc(Cl)c12	104% (inactive)
CCN(CC)CCO/N=C1\CC(c2ccc(OC)c(OC)c2)Oc2ccccc21 (centres undefined)	97.5% (inactive)
O=c1[nH]c(=S)[nH]n1C(=S)n1[nH]c(=S)[nH]c1=O	111% (inactive)
CC(C)(C)OC(=O)NCCc1ccc(N)cc1	110% (inactive)
CC1=CC(=O)c2cccc(NC3=NCCO3)c21	102% (inactive)
NC(=O)Cc1nc(O)cc(=O)[nH]1	108% (inactive)
O=C1c2ccccc2CN1c1ccccc1	105% (inactive)
O=C1c2cccnc2-c2ncccc21	123% [100 µM] (inactive)
O=S(=O)(O)c1ccc2cc(O)ccc2c1	103% (inactive)
NNC(=O)Nc1ccccc1	99.1% (inactive)
COCCCNC1=C(C#N)C(=O)NC(c2cccs2)S1 (centres undefined)	110% (inactive)
O=C(Nc1ccccc1)OCC(CN1CCCCC1)OC(=O)Nc1ccccc1 (centres undefined)	98% (inactive)

---

System: A498 renal
Experiment: NCI-60 one-dose screen, 48 h (100 = growth as untreated, 0 = no growth, -100 = all killed)
Conditions: 10 µM unless noted
Description: Growth inhibition of the A498 human tumor cell line is measured as a screen for anti-cancer activity. Cells are grown in 96 well plates and exposed to the test compound for 48 hours. Compounds are tested at a single concentration, which is 10^-5 M for most compounds. The reported endpoint is percent growth (GI% or GIPRCNT), where numbers from 0 - 100% represent growth inhibition, and numbers from -100% - 0 represent cell death. For example, a value of 40 represents 60% growth inhibition. […]
The panel holds about 83,000 compounds, 20% with a hit somewhere; the sample as a whole holds those more often.

Compound	Unit Label	growth
COc1ccc(/C=N/Nc2nc3ccccc3s2)cc1	%	115
CCOC(=O)C1=C(C)NC(C)=C(C(=O)OCC)C1	%	112
CCNCc1ccccc1	%	97.4
C/C(CC(C)C)=N/NC(N)=S	%	87.6
OCc1cccc(F)c1	%	111
CCOc1ccc(/C=C\C(=O)O)cc1	%	101
CN(C)C(=S)N(C)C	%	120
CCCC(=O)Oc1ccc2ccccc2c1	%	103
NNc1ncnc2cccc(Cl)c12	%	108
C/C(=C\c1ccccc1)C(O)C(=O)c1nc2ccc([N+](=O)[O-])cc2[nH]c1=O (stereo not given)	%	110
COc1ccc(/C=C/C(=O)O)cc1OC	%	104
O=C(O)/C=C/C=C/c1ccccc1	%	73.4
O=C1C=CC(n2cc(F)c(=O)[nH]c2=O)O1 (stereo not given)	%	79.5
CCc1ccc(OC(=O)CCl)cc1	%	88.3
O=C(O)Cc1cc(=O)[nH]n(-c2ccccc2)c1=O	%	97.6
CC(=O)Oc1cc(C)c(OC(C)=O)c(C)c1C	%	109
CCCC(=O)Oc1ccc(CC)cc1	%	78.1
O=C(c1ccncc1)c1c(Cc2ccccc2)ccc2ccccc12	%	104
COCCNC(C)=O	%	89.6
CN(C=O)c1ccccc1	%	98
CC(NC(=O)CCl)c1ccccc1 (stereo not given)	%	83.9
O=S(=O)(O)c1ccc2cc(O)ccc2c1	%	78.8
C/C=C/C(=O)OCCCCCCCCCCCC	%	103
O=c1[nH]c(=O)c2[nH]c(=O)[nH]c2[nH]1	%	73.9
CCOC(=O)c1ccncc1	%	86.8
Cn1c(-c2ccccc2)cc(=O)cc1-c1ccccc1	%	106
Cc1cc(=NO)cc(C)n1O	%	93.9
COC(=O)c1nc(N)nc(C(=O)OC)c1C(=O)c1cccc2ccccc12	%	105
OCCCc1ccccc1	%	110
CC1=CC(=O)c2cccc(NC3=NCCO3)c21	%	110

---

Entries annotated with measured growth
Test system: SNB-19 CNS
Assay: NCI-60 one-dose screen, 48 h (100 = growth as untreated, 0 = no growth, -100 = all killed)
Conditions: 10 µM unless noted
About 83,000 compounds went through this panel and 20% of them were active in at least one assay; those are over-represented in the sample as a whole.

Compound Smiles	Unit Label	growth
CCOC(=O)c1ccc(C(=N)N)cc1	%	113
COc1ccc2oc3c(ccc[n+]3C)c(=O)c2c1	%	97.9
CCN(C)c1ccccc1	%	106
C=CCN1C(=O)c2ccccc2C1=O	%	98.1
NC(=O)Cc1nc(O)cc(=O)[nH]1	%	96.9
COC(=O)c1nc(N)nc(C(=O)OC)c1C(=O)c1cccc2ccccc12	%	103
Cc1cnc(N)s1	%	91.4
CCOCCC(=O)O	%	109

---

System: CCRF-CEM leukemia
Assay: NCI-60 one-dose screen, 48 h (100 = growth as untreated, 0 = no growth, -100 = all killed)
Conditions: 10 µM unless noted
The panel holds about 83,000 compounds, 20% with a hit somewhere; the sample as a whole holds those more often.

Compound	Assayed System	growth [%]
Cc1ccc([N+](=O)[O-])cc1Br	CCRF-CEM leukemia	105
Cc1cc(Cl)nc(Nc2ccccc2)n1	CCRF-CEM leukemia	99.3
COC(=O)c1cc(C(=O)OC)cc([N+](=O)[O-])c1	CCRF-CEM leukemia	102
COC(=O)c1nc(N)nc(C(=O)OC)c1C(=O)c1cccc2ccccc12	CCRF-CEM leukemia	101
CC1OS(=O)OC1C (centres undefined)	CCRF-CEM leukemia	96.2
NNc1ncnc2cccc(Cl)c12	CCRF-CEM leukemia	102
CCCC(=O)OCC(COC(=O)CCC)OC(=O)CCC	CCRF-CEM leukemia	95.4
Cc1ccc(NC(=S)N/C=C(\c2ccccc2)S(=O)Cc2ccccc2)c(C)c1 (centres undefined)	CCRF-CEM leukemia	97.3
CCc1ccccc1-n1[nH]c(C)c(C=N)c1=O	CCRF-CEM leukemia	102
